B1: Hairpin Ribozyme (parent)
chain: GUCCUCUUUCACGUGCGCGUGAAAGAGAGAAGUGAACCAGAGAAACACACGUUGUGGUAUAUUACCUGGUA

variants of: B1; assay: self-cleavage, relative activity (ratio to wild type); higher = more cleavage; co-transcriptional
Task for the reader: assign each of the following variants its reported self-cleavage.
Numbers only.

Illustrative cases are given below, each with its answer.
G27U A31C :: 0.205
A47C G51U :: 0.392
C3U A22U :: 0.395

Okay, now this variant:
In: What measured self-cleavage goes with C3U C38G ?
Out: 0.201

Data credit: the RNAGym collection of RNA variant scans (doi:10.7554/elife.80360)
